# System: HT-29 cells
# assay.procedure: CellTiter-Glo luminescent cell viability assay with HT-29 cells (72h incubation)
# Assay type: cell-based, human
# condition.info: Homo sapiens, HT-29, HT29 cells, read-out: CTG HT29
// reported IC50 for each item listed

Look over these answered cases.
compound: Cc1ccc2cc1CNC(=O)[C@H](CCc1ccccc1)NC(=O)[C@@H](NC(=O)c1ccc3cc(N)ccc3c1)CC(=O)N1CCCC(CCO2)C1 (stereo partly shown)
IC50: < 100 nM
--
compound: Cc1ccc2cc1CNC(=O)[C@H](CCc1ccccc1)NC(=O)[C@@H](NC1COC1)CC(=O)N1CCCC(CCO2)C1 (stereo partly shown)
IC50: 100 to 500 nM
--
compound: CC(=O)N[C@H]1CCC(=O)N2CCCC(C2)Oc2ccc(C)c(c2)CNC(=O)[C@H](CCc2ccccc2)NC1=O (stereo partly shown)
IC50: 100 to 500 nM
--
compound: Cc1ccc2cc1CNC(=O)C(CCc1cnc3cccnc3c1)NC(=O)[C@@H](NC(=O)OCc1ccccc1)CC(=O)N1CCCC(CCO2)C1 (stereo partly shown)
IC50: < 100 nM
--
compound: CCC(C(=O)N[C@H]1CC(=O)N2CCCC(CCOc3ccc(C)c(c3)CNC(=O)[C@H](CCc3ccccc3)NC1=O)C2)c1ccc(OC)c(OC)c1 (stereo partly shown)
IC50: < 100 nM
--
compound: Cc1ccc2cc1CNC(=O)C(CCc1cnccn1)NC(=O)[C@@H](NC(=O)C1(c3ccc(N)cc3)CC1)CC(=O)N1CCCC(CCO2)C1 (stereo partly shown)
IC50: < 100 nM
--
compound: CC(=O)N[C@H]1CC(=O)N2CCCC(CCOc3ccc(C)c(c3)CNC(=O)C(CCC3CCN(C(C)=O)CC3)NC1=O)C2 (stereo partly shown)
IC50: < 100 nM
--
compound: CC(=O)N[C@H]1CC(=O)N2CCCC(CCOc3ccc(C)c(c3)CNC(=O)C(CCc3cccnc3)NC1=O)C2 (stereo partly shown)
IC50: < 100 nM
--
compound: Cc1ccc2cc1CNC(=O)[C@H](CCc1ccccc1)NC(=O)[C@@H](NC(=O)Cc1nc(-c3ccccc3)n[nH]1)CC(=O)N1CCCC(CCO2)C1 (stereo partly shown)
IC50: < 100 nM
--
compound: CC(=O)N[C@H]1CC(=O)N2CCCC(CCOc3ccc(C)c(c3)CNC(=O)C(c3ccc4ncccc4c3)NC1=O)C2 (stereo partly shown)
IC50: < 100 nM

What value of IC50 has been recorded for this entry: Cc1ccc2cc1CNC(=O)[C@H](CCc1ccccc1)NC(=O)[C@@H](NC(=O)CCc1ccc(Br)cc1)CC(=O)N1CCCC(CCO2)C1 (stereo partly shown)
< 100 nM

What value of IC50 has been recorded for this entry: COC(=O)N(CC1NC(=O)[C@@H](NC(=O)OCc2ccccc2)CC(=O)N2CCCC(CCOc3ccc(C)c(c3)CNC1=O)C2)c1ccccc1 (stereo partly shown)
< 100 nM

What value of IC50 has been recorded for this entry: Cc1ccc2cc1CNC(=O)C(CCc1cnccn1)NC(=O)[C@@H](NC(=O)Cc1ccc(N)cc1F)CC(=O)N1CCCC(CCO2)C1 (stereo partly shown)
< 100 nM

Values from patent US20240415819A1
